- Experiment Notes: physchem
- Assay type: physicochemical
- Stated Conditions: aqueous buffer

# Compound, solubility
records = [
    ("CC(C)(C)NCC(O)COc1cccc2[nH]c(C#N)cc12 (stereo not shown)", "750 µM"),
]
